Each recorded value in this set is attributed to PubChem BioAssay AID504339.

- TEST TARGET: Lysine-specific demethylase 4A (Homo sapiens) (UniProt O75164)
- Sequence (O75164 whole entry, looked up, the tested form may be a part): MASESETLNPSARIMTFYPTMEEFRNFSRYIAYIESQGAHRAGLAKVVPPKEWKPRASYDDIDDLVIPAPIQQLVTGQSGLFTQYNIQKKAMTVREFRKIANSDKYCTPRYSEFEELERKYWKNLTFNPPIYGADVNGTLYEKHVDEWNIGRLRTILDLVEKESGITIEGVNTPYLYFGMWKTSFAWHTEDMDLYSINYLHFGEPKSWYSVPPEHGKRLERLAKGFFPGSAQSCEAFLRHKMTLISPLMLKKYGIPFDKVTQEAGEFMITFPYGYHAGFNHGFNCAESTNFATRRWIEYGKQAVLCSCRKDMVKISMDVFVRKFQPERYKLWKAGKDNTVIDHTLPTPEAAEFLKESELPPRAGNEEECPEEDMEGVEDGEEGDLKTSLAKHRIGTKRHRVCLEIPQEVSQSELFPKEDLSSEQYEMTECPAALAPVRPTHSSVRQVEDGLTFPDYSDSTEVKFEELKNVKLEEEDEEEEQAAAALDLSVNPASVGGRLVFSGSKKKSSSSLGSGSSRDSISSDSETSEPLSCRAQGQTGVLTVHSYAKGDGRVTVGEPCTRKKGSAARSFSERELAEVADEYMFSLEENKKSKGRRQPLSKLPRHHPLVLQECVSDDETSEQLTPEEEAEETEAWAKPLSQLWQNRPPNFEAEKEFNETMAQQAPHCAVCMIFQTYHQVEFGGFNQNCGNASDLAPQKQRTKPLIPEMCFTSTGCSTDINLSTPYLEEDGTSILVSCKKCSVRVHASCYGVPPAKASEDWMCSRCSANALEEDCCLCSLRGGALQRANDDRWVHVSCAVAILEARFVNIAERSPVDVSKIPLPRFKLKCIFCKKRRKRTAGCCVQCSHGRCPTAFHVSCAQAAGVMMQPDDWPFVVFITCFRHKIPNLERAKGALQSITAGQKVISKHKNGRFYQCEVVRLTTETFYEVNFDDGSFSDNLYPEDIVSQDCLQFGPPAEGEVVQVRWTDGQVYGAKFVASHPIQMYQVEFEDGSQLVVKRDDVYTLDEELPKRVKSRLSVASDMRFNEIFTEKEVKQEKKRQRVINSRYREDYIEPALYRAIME
- EXPERIMENT NOTES: qHTS Assay for Inhibitors of JMJD2A-Tudor Domain; further: nearly all actives have a fitted effect of over 50% in size
- CONDITION PARAMETERS: AlphaScreen JMJD2A-Tudor / H3K4me3 peptide binding; series mostly up to 114 µM
The campaign covered roughly 390,000 compounds. About 17,000 (4.4%) were called active. Not shown: some 8% with an inconclusive outcome. The call rests on the fitted dose curve; in most records, active means well fitted inhibition curve with a large enough effect; inconclusive means small, poorly fitted or top-dose-only effect; inactive means no such curve, though single readings can be large or run the other way. Only a selection was taken, and actives are over-represented in it overall.
Outcome field: choose from y for active, n for inactive

Q: Recorded test outcome, item Cc1ccc(Cl)cc1N(C)C(=O)Cn1nc(Cc2cccnc2)c2ccccc2c1=O
Ans: n

Q: Recorded test outcome, item O=C(NCc1ccccc1)C(=O)NCC(c1ccco1)S(=O)(=O)c1ccc(Cl)cc1 (stereo not given)
Ans: n

---

- TEST TARGET: Lysine-specific demethylase 4A (Homo sapiens) (UniProt O75164)
- EXPERIMENT NOTES: qHTS Assay for Inhibitors of JMJD2A-Tudor Domain; further: nearly all actives have a fitted effect of over 50% in size; further: potency means the concentration at half of the fitted maximal effect
- CONDITION PARAMETERS: AlphaScreen JMJD2A-Tudor / H3K4me3 peptide binding; series mostly up to 114 µM
The whole screen tested about 390,000 compounds, of which about 17,000 (4.4%) were called active. About 8% were inconclusive and are not listed. This is one part of a sample in which actives are shown more often than they occur.
QUANTITY MEASURED: Potency

Answered cases to consult:
| COMPOUND | Potency |
| --- | --- |
| Cc1cc(C)cc(NC(=O)CCS(=O)(=O)c2cc3c4c(c2)CCN4C(=O)CC3)c1 | inactive |
| Cc1ccc(NC(=S)NCCc2ccc(Cl)cc2)c(C)c1 | inactive |
| O=C(CC1C(=O)N(c2ccccc2)C(=O)N1CCc1cccs1)Nc1ccc(F)cc1 (stereo not given) | inactive |
| COc1cccc(CNC(=O)c2ccc3c(c2)sc2nc(-c4cccc(OC)c4)cn23)c1 | inactive |

The recorded Potency for entry CCn1c(SCC(=O)c2ccc3ccccc3c2)nnc1-c1cccs1 equals 79.4 µM (active)

---

- TEST TARGET: Lysine-specific demethylase 4A (Homo sapiens) (UniProt O75164)
- EXPERIMENT NOTES: qHTS Assay for Inhibitors of JMJD2A-Tudor Domain; further: nearly all actives have a fitted effect of over 50% in size
- CONDITION PARAMETERS: AlphaScreen JMJD2A-Tudor / H3K4me3 peptide binding; series mostly up to 114 µM
In all, about 390,000 compounds went through this assay and about 17,000 (4.4%) were called active. Roughly 8% stayed inconclusive and do not appear here. Calls follow the shape of the dose curve; as a rule, active = well fitted inhibition curve with a large enough effect; inconclusive = small, poorly fitted or top-dose-only effect; inactive = no such curve, though single readings can be large or run the other way. The sample as a whole holds a higher share of actives than the screen did.
Outcome field: choose from active, inactive

# example entries with known answers
| COMPOUND | TEST TARGET | CLASSIFICATION |
| --- | --- | --- |
| Cc1nc([N+](=O)[O-])cn1CC(=O)Nc1ccc2c(c1)OCO2 | Lysine-specific demethylase 4A (Homo sapiens) (UniProt O75164) | inactive |
| Fc1ccc(Nc2nc(SCc3ccccc3Cl)nc3ccccc23)cc1 | Lysine-specific demethylase 4A (Homo sapiens) (UniProt O75164) | inactive |
| Cc1ccccc1CN1CCC(CNC(=O)c2cc3ccc4cccnc4c3[nH]2)CC1 | Lysine-specific demethylase 4A (Homo sapiens) (UniProt O75164) | inactive |
| CC1CCCN(Cc2c(O)ccc3c(=O)c(Oc4ccc(C(C)(C)C)cc4)c(C(F)(F)F)oc23)C1 (configuration not stated) | Lysine-specific demethylase 4A (Homo sapiens) (UniProt O75164) | inactive |

Q: Recorded test outcome, item c1ccc(CSc2nnc(-c3ccco3)c(-c3ccco3)n2)cc1
Ans: active

Q: Recorded test outcome, item S=c1[nH]nc(-c2ccco2)n1/N=C/c1ccccc1
Ans: active

Q: Recorded test outcome, item CC(=O)c1sc(N2C(=O)c3oc4ccccc4c(=O)c3C2c2ccc(C)cc2)nc1C (configuration not stated)
Ans: inactive

Q: Recorded test outcome, item CCc1cccc(NC(=O)c2cnc(N3CCOCC3)c3ccccc23)c1
Ans: inactive

Q: Recorded test outcome, item CCc1ccccc1N1C(=O)CN(S(=O)(=O)CC)CC1(C)C(=O)NC1CCCCC1 (configuration not stated)
Ans: inactive

Q: Recorded test outcome, item O=C(NCCc1ccccc1)c1ccc2c(c1)N(Cc1ccccc1)C(=O)c1ccccc1S2(=O)=O
Ans: inactive

Q: Recorded test outcome, item CC1(C)N=C(SCc2ccccc2Cl)c2ccccc2N1
Ans: inactive

Q: Recorded test outcome, item COc1ccc(C(=O)COC(=O)c2ccc3ccccc3n2)cc1
Ans: inactive

Q: Recorded test outcome, item COc1ccc(NS(=O)(=O)c2cc(NC(=O)/C=C/c3cc(OC)c(OC)c(OC)c3)ccc2N2CCCCC2)cc1
Ans: inactive

Q: Recorded test outcome, item Cc1ccc(-c2nnc(SCC(=O)NCc3ccccc3)nc2-c2ccc(C)cc2)cc1
Ans: inactive

Q: Recorded test outcome, item O=C(NCCSc1ccccc1)c1ccco1
Ans: inactive

Q: Recorded test outcome, item S=c1[nH]nc(-c2ccco2)n1/N=C/c1ccc(Br)s1
Ans: active

Q: Recorded test outcome, item COc1ccccc1Nc1c2c(nc3ccc(NC(=O)/C=C/c4cc(OC)c(OC)c(OC)c4)cc13)CCCC2
Ans: active
